# subject_of_test: T1, Ala mutant SEQ ID NO: 32 (human)
# T1 peptide: EENMDAQWMQDEMEIGY
# test_description: ELISA, peptide on plate (10 ug/mL)
parameter: absorbance 490 nm/630 nm (OD)
Express it in OD; write the number only.

Consider the following illustrative entries.
Looking for the measured absorbance 490 nm/630 nm of G6 (antibody, IgG1, V domains shown, Chicken variable regions in mouse chimeric antibody (IgG1) expression vectors; also called anti-PAD4 antibody G6; A11 etc) VH: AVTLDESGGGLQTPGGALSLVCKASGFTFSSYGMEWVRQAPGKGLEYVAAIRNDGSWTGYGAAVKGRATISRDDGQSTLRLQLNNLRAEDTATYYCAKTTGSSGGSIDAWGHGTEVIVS VL: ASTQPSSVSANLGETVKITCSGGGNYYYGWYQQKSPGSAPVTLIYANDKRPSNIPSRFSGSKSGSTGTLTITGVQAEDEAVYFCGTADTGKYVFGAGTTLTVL , can you help? 0.035

Looking for the measured absorbance 490 nm/630 nm of G8 (antibody, IgG1, V domains shown, Chicken variable regions in mouse chimeric antibody (IgG1) expression vectors; also called anti-PAD4 antibody G8; A11 etc) VH: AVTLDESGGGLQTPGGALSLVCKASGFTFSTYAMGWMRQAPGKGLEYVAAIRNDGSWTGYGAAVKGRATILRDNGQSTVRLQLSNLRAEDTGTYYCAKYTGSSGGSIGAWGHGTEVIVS VL: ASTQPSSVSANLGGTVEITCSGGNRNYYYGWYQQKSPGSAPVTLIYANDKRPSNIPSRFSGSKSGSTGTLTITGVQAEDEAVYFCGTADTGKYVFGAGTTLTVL , can you help? 0.083

Looking for the measured absorbance 490 nm/630 nm of H7 (antibody, IgG1, V domains shown, Chicken variable regions in mouse chimeric antibody (IgG1) expression vectors; also called anti-PAD4 antibody H7; A11 etc) VH: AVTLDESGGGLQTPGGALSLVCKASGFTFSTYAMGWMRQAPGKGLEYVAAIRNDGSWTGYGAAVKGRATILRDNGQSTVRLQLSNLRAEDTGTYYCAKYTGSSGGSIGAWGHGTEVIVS VL: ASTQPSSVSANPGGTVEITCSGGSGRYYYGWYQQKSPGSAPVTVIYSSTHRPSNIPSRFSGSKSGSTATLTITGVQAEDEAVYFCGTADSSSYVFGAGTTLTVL , can you help? 0.033

We now examine a further binder.
Looking for the measured absorbance 490 nm/630 nm of G9 (antibody, IgG1, V domains shown, Chicken variable regions in mouse chimeric antibody (IgG1) expression vectors; also called anti-PAD4 antibody G9; A11 etc) VH: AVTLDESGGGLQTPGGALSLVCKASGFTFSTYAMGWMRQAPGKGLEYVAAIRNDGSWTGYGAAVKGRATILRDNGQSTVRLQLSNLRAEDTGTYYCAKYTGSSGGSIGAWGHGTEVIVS VL: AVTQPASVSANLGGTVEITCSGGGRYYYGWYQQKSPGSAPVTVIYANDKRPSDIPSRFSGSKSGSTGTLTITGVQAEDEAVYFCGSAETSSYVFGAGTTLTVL , can you help? 0.039
